Class field: derived from logP; ranges lower level (below 1), middle level (1 to below 3), upper level (3 or more)

1. CCc1ccc(N)cc1: middle level
2. c1ccc2c(c1)cnn2C12CC3CC(CC(C3)C1)C2: upper level
3. C#CCn1cncc1[N+](=O)[O-]: lower level
4. CN(C)C(=O)Nc1ccc(Cl)c(Cl)c1: middle level
5. N#Cc1ccccc1N: middle level
6. CCCCCCCCC1(c2ccncc2)CCC(=O)NC1=O (stereo not given): upper level
7. CCc1ccc(S(I)=C(N(C)C)N(C)C)cc1 (stereo not given): lower level
8. Cc1ccc2ccccc2n1: middle level
9. COC(=O)C(F)(F)F: lower level
10. O=C(Nc1ccccc1)C(F)(F)F: middle level
11. OC(CNCC(O)COc1ccccc1)COc1ccccc1 (stereo not given): middle level
12. CCCN(CCC)S(=O)(=O)c1ccc(C(=O)O)cc1: upper level
13. O=C(O)COc1ccc(Cl)cc1: middle level
14. O=c1[nH]c(=O)n(C2CCCO2)cc1F (stereo not given): lower level

* * *

readout_type: logP

1) O=C(CI)NC(CO)C(O)c1ccc([N+](=O)[O-])cc1 (configuration not stated): 1.03
2) N#Cc1cccc(C=O)c1: 1.18
3) Nc1nc(N)nc(-c2ccc([N+](=O)[O-])cc2)n1: 1.6
4) CCCC1(CC)C(=O)NC(=O)NC1=O: 0.66
5) NC(C(=O)OCn1ncc2c(=O)[nH]cnc21)c1ccccc1 (configuration not stated): -0.15
6) Cc1ccc(C)[nH]1: 1.47
7) CC(C)Nc1nc(NC(C)(C)C)nc(SC(F)F)n1: 4.7

* * *

Peptide text beside a SMILES is read from it. * marks the point of attachment. Boc = CC(C)(C)OC(=O)*; NHtBu = CC(C)(C)N*
readout_type: logP

1) CC=Cc1ccccc1: 3.35
2) CCOCc1ccccc1NC(=O)OCCN1CCCCC1: 2.72
3) O=c1cccccc1O: 0.53
4) O=C(NC(CO)C(O)c1ccc([N+](=O)[O-])cc1)C(Br)(Br)Br (stereo unspecified): 2.17
5) O=[N+]([O-])c1ccco1: 0.66
6) CCCCc1cccc(NC(=O)N(C)C)c1: 3.23
7) c1ccc(-n2cccn2)cc1: 2.2
8) C[C@@H]1C[C@@]2(C)[C@@H](CC[C@@H]3[C@@H]2CC[C@]2(C)[C@@H](O)CC[C@@H]32)CC1=O: 3.99
9) CC(=O)NC(C)C(=O)NCC(=O)NC(C)C(=O)NC(C)(C)C (stereo not drawn) (Ac-Ala-Gly-Ala-NHtBu; configuration not given here): -0.6
10) CCS(=O)(=O)c1ccc(S(N)(=O)=O)c2ccccc12: 1.24
11) c1nnn[nH]1: -0.6
12) Cc1ccc(Cc2c[nH]c(NCCSCc3ccc(CN(C)C)o3)nc2=O)cn1: 2.06
13) CCCCCSCS(=O)CC(CO)NC(=O)C=Cc1c(C)[nH]c(=O)[nH]c1=O (stereo unspecified): 0.6
14) CCOP(=O)(OCC)Oc1ccc(SC)cc1Cl: 3.05
15) NCCCN: -1.43
16) O=c1[nH]ncc2ccccc12: 0.75
17) OCC1OC(OCc2ccccc2)C(O)C(O)C1O (stereo unspecified): -0.7
18) CCCCCCN(C)N=Nc1ccc(C(N)=O)cc1: 3.69
19) OC1CCCCC1: 1.23
20) O=c1cc[nH]c2ccccc12: 0.58
21) OCc1ccc2ccccc2c1: 2.21
22) O=CNc1ccc(F)cc1: 1.27
23) O=C(Nc1ccccc1)Nc1ccc(Cl)c(Cl)c1: 4.7
24) COc1ccccc1OCC(=O)NNC(C)C: 1.11
25) O=C(O)c1c2ccccc2cc2ccccc12: 3.85
26) O=C(O)Cc1ccc(Br)cc1: 2.31
27) CCN(CC)CCNC(=O)c1cc(C#N)c(N)cc1OC: 1.94
28) CC=CC (mixture of isomers): 2.33
29) CCCC(=O)NN: -0.62
30) Cc1cccs1: 2.33
31) CCCC(C)=O: 0.91
32) COc1ccc(C(C#N)C(C)C)cc1 (stereo unspecified): 2.68
33) CC(C)C(NC(=O)C(Cc1ccccc1)NC(=O)OC(C)(C)C)C(=O)O (stereo not drawn) (Boc-Phe-Val-OH; configuration not given here): 2.88
34) CC12CCC(=O)C=C1CCC1C2C(O)CC2(C)C1CCC2(O)C(=O)COC(=O)CCCCCC(N)=O (stereo unspecified): 2.3
35) C/C=C/C=C/C(=O)O: 1.33
36) CCC(C)NC(=O)C=C(Cl)c1ccccc1 (stereo unspecified): 3.52
37) CCOC(=O)Nc1ccccc1: 2.3
38) O=Cc1ccco1: 0.41
39) CCC(C)C(NC(=O)C(CCCCN)NC(C)=O)C(=O)NC(Cc1ccccc1)C(N)=O (stereo unspecified): 0.65
40) CC(=O)N[C@@H](CC(C)C)C(=O)N[C@@H](CO)C(=O)N[C@@H](Cc1ccccc1)C(N)=O (Ac-Leu-Ser-Phe-NH2): 0.23
41) CC[C@H](C)[C@H](NC(=O)[C@@H](NC(C)=O)[C@@H](C)O)C(N)=O (Ac-Thr-Ile-NH2): -0.86
42) CC(=O)c1ccccc1OCC(=O)O: 1.25
43) Cc1cc(Cl)c(N=C2NCCN2)c(Cl)c1: 1.92
44) COC(=O)c1cc(Oc2ccc(Cl)cc2Cl)ccc1[N+](=O)[O-]: 4.48
45) OCc1ccccc1O: 0.73
46) CCCCCCCCOc1cccc(NC(=O)OCCN2CCCCC2)c1: 5.82
47) OCc1cccc(Cl)c1: 1.94
48) O=c1[nH]c(=O)n([C@H]2C[C@H](O)[C@@H](CO)O2)cc1F: -1.16
49) COc1cccc(C(=O)NN)c1: 0.4
50) CCOC(=O)C(=Cc1ccc(O)c(OC)c1)C(=O)OCC: 2.89
51) CC(C)(C)CO: 1.31
52) CN(C)N=Nc1ccc(C=CC(=O)O)cc1: 2.66
53) O=Nc1ccccc1: 2.01
54) Nc1ccc(C2CCCCC2)cc1: 3.65
55) Cc1ccc(CC(=O)O)cc1: 1.86
56) CC(=O)Oc1cccc2ccccc12: 2.78
